# test.name: Half life in monkey at 1 mg/kg, iv
# experimental.conditions: cynomolgus monkey, in vivo
assay.endpoint: half-life (h)
// return numeric value only (unit: h, not printed)

q: I would be grateful if you could share the reported half-life for "CS[C@@]1(C(=O)Nc2ccc3[nH]nc(-c4ccc(OC(C)C)nc4)c3c2)CCN(CC(=O)N2CC=C(c3ccc(-c4ncn(C)n4)cc3)CC2)C1" .
a: 1.3

###

# test.name: Clearance in human hepatocytes assessed per million cells
# Format: ADME, cell-based, Hepatocyte
assay.endpoint: CLH (µL/min)
Your answer should be a plain number; it is taken to be in µL/min.

q: Please look up its CLH: "CS[C@@]1(C(=O)Nc2ccc3[nH]nc(-c4ccc(F)cc4)c3c2)CCN(CC(=O)N2CC=C(c3ccc(-c4ncccn4)cc3)CC2)C1"
a: 18
